Molecular target: Histone deacetylase HD2 (Zea mays, UniProt Q94F81)
Sequence (Q94F81 whole entry): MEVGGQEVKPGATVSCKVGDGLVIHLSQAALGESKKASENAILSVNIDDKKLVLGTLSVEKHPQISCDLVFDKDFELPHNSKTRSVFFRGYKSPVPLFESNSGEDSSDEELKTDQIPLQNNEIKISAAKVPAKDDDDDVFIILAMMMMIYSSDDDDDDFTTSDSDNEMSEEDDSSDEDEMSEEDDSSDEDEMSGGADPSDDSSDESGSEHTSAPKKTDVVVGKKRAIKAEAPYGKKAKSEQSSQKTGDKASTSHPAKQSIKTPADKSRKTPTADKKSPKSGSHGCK
pIC50: −log10 of the molar value. Square brackets hold non-standard residues; d marks the D form. Peptide text beside a SMILES is read from it. Aoe = N[C@@H](CCCCCC(=O)[C@@H]1CO1)C(=O)O
measurementKind: pIC50

• CN(C)c1ccc(C(=O)c2cc(/C=C/C(=O)NO)n(C)c2)cc1 = 5.62
• O=C1N[C@@H](Cc2ccccc2)C(=O)N2CCC[C@@H]2C(=O)N[C@@H](CCCCCC(=O)[C@@H]2CO2)C(=O)N[C@H]1Cc1ccccc1 [TRAPOXIN B] (cyclo(FF[dP][Aoe])) = 8.00
• Cn1cc(C(=O)c2ccc(F)cc2)cc1/C=C/C(=O)NO = 5.42
• Cn1cc(C(=O)c2ccc([N+](=O)[O-])cc2)cc1/C=C/C(=O)NO = 5.41

---

Target: Histone deacetylase HD2 (Zea mays)
Assay: Percent inhibition of histone deacetylase activity at 30 uM
Reported inhibition values for the following compounds.
measurementKind: inhibition (%)

- CN(C)c1ccc(C(=O)c2cc(/C=C/C(=O)NO)n(C)c2)cc1: 88
- Cn1cc(C(=O)c2ccc(F)cc2)cc1/C=C/C(=O)NO: 84
- Cn1cc(C(=O)c2ccccc2)cc1/C=C/C(=O)NN: 0.2
- Cn1cc(C(=O)c2ccccc2)cc1/C=C/C(=O)NO: 86
- COc1ccc(C(=O)c2cc(/C=C/C(=O)NO)n(C)c2)cc1: 75.2
- Cc1ccc(C(=O)c2cc(/C=C/C(=O)NO)n(C)c2)cc1: 86.4
- Cn1cc(C(=O)c2ccc(Cl)cc2)cc1/C=C/C(=O)NO: 87
- Cn1cc(C(=O)c2ccccc2)cc1/C=C/C(=O)NCCO: 0.9
- Cn1cc(C(=O)c2ccc([N+](=O)[O-])cc2)cc1/C=C/C(=O)NO: 78
- Cn1cc(C(=O)c2ccccc2)cc1CCC(=O)NO: 45

---

pKi: −log10 of the molar value.
pKi tested on Histone deacetylase HD2 (Zea mays, UniProt Q94F81): recorded values
measurementKind: pKi

* Cc1ccc(C(=O)c2cc(/C=C/C(=O)NO)n(C)c2)cc1 | 5.95
* O=C(CCCCCCC(=O)Nc1ccccc1)NO | 6.88
* COc1ccc(C(=O)c2cc(/C=C/C(=O)NO)n(C)c2)cc1 | 5.76
* Cn1cc(C(=O)c2ccc(F)cc2)cc1/C=C/C(=O)NO | 5.64
